# Test system: SF-268
# ASSAY_TEXT: NCI tumour cell line growth inhibition, 48 h
Active and inactive are the calls of the source. No stated cut-off is given here; in the data, active = GI50 up to about 1.1 µM and inactive = higher.
# valid calls are Y = active, N = inactive; nothing else

Please review the entries below; each comes with its answer.
> print(dat)
                                   compound  system  group
1  Cc1cc(C)c2c(c1)C(=O)C1(C2)Cc2c(ccc(C)c2C)C1=O (configuration not stated)  SF-268      N
2  COc1ccc(-c2cc(-c3ccc(Nc4ccnc5cc(C(F)(F)F)ccc45)cc3)[nH]c(=O)c2C#N)cc1  SF-268      N
3     COc1ccc(/C=C/C=C2C(=O)NC(=S)NC2=O)cc1  SF-268      N
4  Cc1ccc(C)c(N2C(=O)C(=O)C(c3nc4ccccc4o3)/C(=N\NC(=O)c3ccccc3O)C2=O)c1 (configuration not stated)  SF-268      N
5  CCOP(=O)(OCC)/C(C#N)=C/c1ccc(-c2cc(C(F)(F)F)cc(C(F)(F)F)c2)o1  SF-268      N
6  Cc1cccc(NC2=NC(=O)C(CC(=O)Nc3ccc(Cl)cc3C)S2)c1 (configuration not stated)  SF-268      N
7  O=C1c2ccccc2C2CCC1c1ccccc12 (configuration not stated)  SF-268      N
8             O=c1c(Br)cc2nc3ccccc3sc-2c1Br  SF-268      N

Query block: # fetch the recorded call for CCCCCC1=C/C(=C\c2[nH]c(-c3ccc[nH]3)cc2OC)N=C1C here
Result block: Y

Query block: # fetch the recorded call for Cc1cccc(C)c1NC(=O)C(=O)C(C(=O)c1ccccc1-c1ccccc1)C1OC(=O)c2ccccc21 (configuration not stated) here
Result block: N

Query block: # fetch the recorded call for Nc1nc2c(ncn2Cc2ccccc2CO)c(=O)[nH]1 here
Result block: N

Query block: # fetch the recorded call for COc1cc(OC)c(NC2=NCCO2)cc1Cl here
Result block: N

Query block: # fetch the recorded call for O=c1ccn(Cc2ccccc2CCl)c(=O)[nH]1 here
Result block: N

Query block: # fetch the recorded call for CC(=O)OC(CCC1(C)OC1COc1ccc(CCNC(=O)c2ccccc2)cc1)C(C)(C)OC(C)=O (configuration not stated) here
Result block: N

Query block: # fetch the recorded call for COc1cc2c(cc1OCCCCCOc1cc3c(cc1OC)C(=O)N1CCC[C@H]1CN3)N=C[C@@H]1CCCN1C2=O here
Result block: N

* * *

# key: entry, value: GI50
# Test system: Hs-578T
# ASSAY_TEXT: NCI tumour cell line growth inhibition, 48 h
Activity calls are given as the source filed them. No stated cut-off is given here; in the data, active = GI50 up to about 1.1 µM and inactive = higher.

Recorded results for 3 molecules are shown here.
> print(dat)
                                   molecule   system         test.result
1  FC(F)(F)C1(C(F)(F)F)OC(Cl)(Cl)C(Cl)(Cl)O1  Hs-578T  > 10 µM (inactive)
2  CC(=O)c1c(SCCN2CCCCCC2)n(-c2ccccc2)c(=S)n(-c2ccccc2)c1=O  Hs-578T  17.7 µM (inactive)
3  C[C@@H]1[C@H](O)CC2=C(CC[C@@H](O)C2(C)C)[C@@]1(CO)CCc1ccoc1  Hs-578T  > 50 µM (inactive)

Query block: Please list GI50 recorded for the molecule COc1ccc(OC)c(C(=O)c2cccc(C(=O)c3cc(OC)ccc3OC)n2)c1
Result block: 27 µM (inactive)

Query block: Please list GI50 recorded for the molecule N#CC(NC12CC3CC(CC(C3)C1)C2)c1ccc2c(c1)OCO2 (stereo unspecified)
Result block: > 100 µM (inactive)

Query block: Please list GI50 recorded for the molecule Cc1ccc(S(=O)(=O)NNC(=O)Nc2ccc([N+](=O)[O-])cc2)cc1
Result block: 34.6 µM (inactive)

* * *

# Tested on: KM12
# ASSAY_TEXT: NCI tumour cell line growth inhibition, 48 h
Activity calls are given as the source filed them. No stated cut-off is given here; in the data, active = GI50 up to about 1.1 µM and inactive = higher.
QUANTITY: GI50

> print(dat)
                                   compound          test.result
1  CC(C)c1cccc2sc(NC(=O)C(=O)CC(=O)c3ccc(F)cc3)nc12  > 100 µM (inactive)
2  O=C1C(=Cc2ccc([N+](=O)[O-])o2)C(=O)N(CCc2ccccc2)S(=O)(=O)N1CCc1ccccc1  > 100 µM (inactive)

Query block: Report measured GI50 on KM12; entry: Cn1c2c(c3ccccc31)CCN1C(=O)CN(C(=O)C3CCCCC3)CC21 (stereo not given)
Result block: > 100 µM (inactive)

Query block: Report measured GI50 on KM12; entry: CC(=O)c1cc([N+](=O)[O-])ccc1OCC(=O)O
Result block: > 100 µM (inactive)

* * *

# Test system: CAKI-1
# ASSAY_TEXT: NCI tumour cell line growth inhibition, 48 h
Calls of active or inactive are those of the source. Rule as the data show it: active = GI50 up to about 1.1 µM and inactive = higher.
# valid calls are 1 (active), 0 (inactive); nothing else

Please review the entries below; each comes with its answer.
> print(dat)
                                   molecule  group
1           CCCNC(=S)N/N=C1\C(=O)Nc2ccccc21      0
2  Cc1cccc2c(=O)c3c(O)cc4c(c3n(C)c12)C=CC(C)(C)O4      0
3  COc1cc([C@@H]2c3cc4c(cc3C(N)C3COC(=O)[C@@H]32)OCO4)cc(OC)c1O (some centres undefined)      1

Query block: # fetch the recorded call for N[C@H]1CCCC[C@@H]1N1C(=O)c2ccccc2C1(O)c1ccc(Cl)cc1 (some centres undefined) here
Result block: 0

Query block: # fetch the recorded call for CSc1ccc(-c2cn3ccsc3n2)c(O)c1 here
Result block: 0

Query block: # fetch the recorded call for CNC(=S)N/N=C/c1ccc([N+](=O)[O-])s1 here
Result block: 0

Query block: # fetch the recorded call for O=c1[nH]c2cc(F)c(F)cc2nc1Cc1ccccc1 here
Result block: 0

* * *

# System: CCRF-CEM
# ASSAY_TEXT: NCI tumour cell line growth inhibition, 48 h
Calls of active or inactive are those of the source. Cut-off read from the data, not from the text of the source: active = GI50 up to about 1.1 µM and inactive = higher.
QUANTITY: GI50

Recorded results for 5 molecules are shown here.
> print(dat)
                                   molecule    system          test.result
1              CSc1ccc(-c2cn3ccsc3n2)c(O)c1  CCRF-CEM   16.1 µM (inactive)
2  Nc1ccn(C2CCC(CO)O2)c(=S)n1 (configuration not stated)  CCRF-CEM  > 100 µM (inactive)
3  COc1ccc([C@@H]2C[C@@H]3C(=O)OC(=O)[C@@H]3c3c2c2ccccc2n3C)cc1  CCRF-CEM  > 100 µM (inactive)
4  CSc1ccc(/C=C2\N=C(c3ccccc3)N(/N=C3\C(=O)Nc4ccccc43)C2=O)cc1  CCRF-CEM   92.5 µM (inactive)
5  C=C1C2Oc3ccccc3C1N(c1ccccc1)O2 (configuration not stated)  CCRF-CEM   21.3 µM (inactive)

Query block: Please list GI50 recorded for the molecule Cc1cc(NS(=O)(=O)c2ccc(NC(=O)c3cccc4c(Nc5ccc(S(=O)(=O)Nc6cc(C)on6)cc5)c5ccc(Cl)cc5nc34)cc2)no1
Result block: 41.9 µM (inactive)

Query block: Please list GI50 recorded for the molecule c1cc(C[S+]2CCCC2)sc1C[S+]1CCCC1
Result block: > 100 µM (inactive)

* * *

# Test system: DMS-114
# ASSAY_TEXT: NCI tumour cell line growth inhibition, 48 h
Activity calls are given as the source filed them. No stated cut-off is given here; in the data, active = GI50 up to about 1.1 µM and inactive = higher.
QUANTITY: GI50

> print(dat)
                     smiles.notation  quantity          test.result
1               O=C1CCCN(c2ccccc2)N1      GI50  > 100 µM (inactive)
2  CCOC(=O)c1ccc(NC(=O)SCCC(=O)O)cc1      GI50  > 100 µM (inactive)

Query block: Report measured GI50 on DMS-114; entry: CC(C)Cc1cc(CCC(=O)Nc2ccccc2[N+](=O)[O-])nc(NC#N)n1
Result block: > 100 µM (inactive)

* * *

# key: entry, value: GI50
# Test system: EKVX
# ASSAY_TEXT: NCI tumour cell line growth inhibition, 48 h
Calls of active or inactive are those of the source. No stated cut-off is given here; in the data, active = GI50 up to about 1.1 µM and inactive = higher.

Recorded results for 10 molecules are shown here.
> print(dat)
                                    molecule          test.result
 1  CCOP(=O)(OCC)C(NC(=O)OCC(Cl)(Cl)Cl)n1nnc(C(=O)OC)c1C(=O)OC (stereo unspecified)  > 100 µM (inactive)
 2  O=C(Oc1ccc(OC(Oc2ccccc2)c2ccccc2)cc1)c1ccccc1 (stereo unspecified)   29.7 µM (inactive)
 3        COC(=O)C(C#N)=C1c2ccccc2Oc2ccccc21  > 100 µM (inactive)
 4    N#CCc1nc(-c2cc3c(ccc4ccccc43)oc2=O)cs1   20.3 µM (inactive)
 5  CC1(C)OC2C(CO)OC(n3ccc(N)nc3=O)C2O1 (stereo unspecified)  > 100 µM (inactive)
 6           CCCNC(=S)N/N=C1\C(=O)Nc2ccccc21  > 100 µM (inactive)
 7  CCCCCc1c(CCCC)c(O)nc2nc(NC(=O)CCCC)ccc12  > 100 µM (inactive)
 8  Clc1ccc(COC(Cn2ccnc2)c2ccc(Cl)cc2Cl)c(Cl)c1 (stereo unspecified)   14.3 µM (inactive)
 9  COc1ccc(C(CC(C)=O)c2c(O)c3ccccc3oc2=O)cc1OC (stereo unspecified)  > 100 µM (inactive)
10            Cc1[nH]c2c(C)ccc(C)c2c1CC(=O)O     39 µM (inactive)

Now, please, on to the next molecule.
Query block: Report measured GI50 on EKVX; entry: CC[N+]1(C)CCC(O)(c2ccc(OC)cc2)C(C(=O)c2ccc(OC)cc2)C1 (stereo unspecified)
Result block: 19.8 µM (inactive)
